target: S1P1 (Homo sapiens, UniProt P21453); test: 35S-GTPγS binding assay, S1P1 membranes; conditions: membranes from CHO cells expressing S1P1; read-out: S1P1/GTPG EC50
Sequence (P21453 whole entry, species assumed): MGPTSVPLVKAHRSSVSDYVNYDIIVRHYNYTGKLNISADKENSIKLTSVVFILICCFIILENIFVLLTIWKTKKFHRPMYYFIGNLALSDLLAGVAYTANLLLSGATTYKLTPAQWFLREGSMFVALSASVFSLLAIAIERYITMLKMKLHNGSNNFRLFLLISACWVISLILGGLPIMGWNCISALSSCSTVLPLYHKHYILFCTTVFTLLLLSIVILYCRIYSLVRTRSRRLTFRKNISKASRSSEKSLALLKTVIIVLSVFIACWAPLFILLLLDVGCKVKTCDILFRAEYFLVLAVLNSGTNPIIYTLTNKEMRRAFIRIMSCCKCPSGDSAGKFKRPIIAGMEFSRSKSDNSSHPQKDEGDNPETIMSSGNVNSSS
Where a name gives a salt, the structure may show the parent alone.
Binary call on EC50 with cut-off 10 nM: strictly below means true (1), and equality or higher means false (0).

Regarding COCc1cc(-c2nc(-c3ccc(C(=O)O)nc3)no2)ccc1-c1ccccc1C [Example 25, hydrochloride salt] , kindly confirm whether its EC50 is beneath 10 nM. false (0)

Regarding COCc1cc(-c2nc(-c3ccc(N(C)C)nc3)no2)ccc1-c1ccccc1C [Example 30] , kindly confirm whether its EC50 is beneath 10 nM. false (0)

Regarding COCc1cc(-c2nc(-c3cnc(N)c(Cl)c3)no2)ccc1-c1ccccc1C [Example 14] , kindly confirm whether its EC50 is beneath 10 nM. true (1)

Regarding CCc1ccccc1-c1ccc(-c2nc(-c3ccc(N)nc3)no2)cc1COC [Example 12, hydrochloride salt] , kindly confirm whether its EC50 is beneath 10 nM. true (1)

Regarding CC1CCCCN1c1ccc(-c2nc(-c3cnc(N)c(Cl)c3)no2)cc1C(F)(F)F (stereo not shown) [Example 39] , kindly confirm whether its EC50 is beneath 10 nM. false (0)

Regarding COCc1cc(-c2nc(-c3ccc(N)nc3)no2)ccc1N1CCCCC1C (stereo not shown) [Example 9] , kindly confirm whether its EC50 is beneath 10 nM. true (1)

Regarding COCc1cc(-c2nc(-c3cnc(NCCC(=O)O)c(Cl)c3)no2)ccc1-c1ccccc1C [Example 37, hydrochloride salt] , kindly confirm whether its EC50 is beneath 10 nM. true (1)

Regarding Cc1ccccc1-c1ccc(-c2nc(-c3ccc(N)nc3)no2)cc1C(F)(F)F [Example 19] , kindly confirm whether its EC50 is beneath 10 nM. false (0)

Regarding CCC1CCCCN1c1ccc(-c2nc(-c3ccc(N)nc3)no2)cc1COC (stereo not shown) [Example 27] , kindly confirm whether its EC50 is beneath 10 nM. false (0)

Regarding COCc1cc(-c2nc(-c3cnc(NCC(=O)O)c(Cl)c3)no2)ccc1-c1ccccc1C [Example 38, hydrochloride salt] , kindly confirm whether its EC50 is beneath 10 nM. false (0)

Regarding COCc1cc(-c2nc(-c3ccc(O)nc3)no2)ccc1N1CCCCC1C (stereo not shown) [Example 22] , kindly confirm whether its EC50 is beneath 10 nM. true (1)

Regarding CC1CCCCN1c1ccc(-c2nc(-c3ccc(N)nc3)no2)cc1C(F)(F)F (stereo not shown) [Example 20] , kindly confirm whether its EC50 is beneath 10 nM. false (0)

Regarding COCc1cc(-c2nc(-c3cnc(N)c(C)c3)no2)ccc1-c1ccccc1C [Example 18, hydrochloride salt] , kindly confirm whether its EC50 is beneath 10 nM. true (1)

Regarding COCc1cc(-c2nc(-c3ccc(NCCO)nc3)no2)ccc1-c1ccccc1C [Example 28] , kindly confirm whether its EC50 is beneath 10 nM. true (1)

Regarding COCc1cc(-c2nc(-c3cnc(NCCC(=O)OC(C)(C)C)c(Cl)c3)no2)ccc1-c1ccccc1C [Example 35] , kindly confirm whether its EC50 is beneath 10 nM. true (1)

Regarding COCc1cc(-c2nc(-c3ccc(N)nc3)no2)ccc1N1CCCC1C (stereo not shown) [Example 33] , kindly confirm whether its EC50 is beneath 10 nM. true (1)
